Below, each entry is listed with its recorded maximal calcium response compared to Neurokinin A.
ASSAYED SYSTEM: T1, human NK2 Receptor (human, UniProt P21452 1-398)
T1 sequence (looked up): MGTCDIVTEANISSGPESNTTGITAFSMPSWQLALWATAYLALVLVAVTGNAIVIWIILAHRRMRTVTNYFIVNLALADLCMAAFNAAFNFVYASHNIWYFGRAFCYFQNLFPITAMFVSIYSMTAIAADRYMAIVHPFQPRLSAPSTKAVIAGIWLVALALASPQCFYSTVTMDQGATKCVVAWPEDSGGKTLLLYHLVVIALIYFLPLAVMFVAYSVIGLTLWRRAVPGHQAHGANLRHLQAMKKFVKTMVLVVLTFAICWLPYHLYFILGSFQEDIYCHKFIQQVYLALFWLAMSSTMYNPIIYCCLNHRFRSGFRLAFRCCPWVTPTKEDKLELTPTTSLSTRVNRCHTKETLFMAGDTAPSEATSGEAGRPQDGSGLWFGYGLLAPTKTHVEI
PROTOCOL: cell-based or functional assay
Where no end group is shown, it is not given here. [ ]: non-standard residue; d: D form. NMeL = CN[C@@H](CC(C)C)C(=O)O; Nle = CCCC[C@H](N)C(=O)O

{"columns": ["BINDER", "RESULT"],
 "data": [
  ["DKFVALM (HELM PEPTIDE1{D.K.F.V.[bAla].L.M.[am]}$$$$V2.0; N-terminus assumed; SMILES CSCC[C@H](NC(=O)[C@H](CC(C)C)NC(=O)CCNC(=O)[C@@H](NC(=O)[C@H](Cc1ccccc1)NC(=O)[C@H](CCCCN)NC(=O)[C@@H](N)CC(=O)O)C(C)C)C(N)=O, synthetic heptapeptide analog of neurokinin A, Fmoc solid-phase synthesis; also called Compound E; Cmpd E) [Heptapeptide analog E, Asp-Lys-Phe-Val-(β-Ala)-Leu-Met-NH2]", "> 80%"]
]}

Let us examine a further case.
Query: Any idea what its maximal calcium response compared to Neurokinin A is? The binder is DRFVG[NMeL][Nle]-NH2 (synthetic heptapeptide analog of neurokinin A, Fmoc solid-phase synthesis; also called Compound B; Cmpd B) [Heptapeptide analog B, Asp-Arg-Phe-Val-Gly-(NMe-Leu)-Nle-NH2]
Response: > 80%
